- TEST_DESCRIPTION: NCI Yeast Anticancer Drug Screen. Data for the mlh1 rad18 strain (AID 175)
- TEST_CONTEXT: S. cerevisiae mlh1 rad18 strain growth inhibition; at 50.0 µM (retest, dose inferred, filed as 5.0); active compounds read high
Compounds without any hit were thinned out: in the full panel of roughly 79,000, 15% have a hit.
Items are presented alongside their recorded growth inhibition.

| SMILES_CODE | growth inhibition / % |
| --- | --- |
| Nc1ccc2nc3c(nc2c1)C(=O)c1ccccc1-3 | 93 |
| CN(Cc1ccccc1)c1nc(=[N+](C)C)ss1 | 16 |
| O=S(=O)(c1ccc(O)cc1)c1ccc(Cl)cc1 | 79 |
| Cc1nc2c(=O)[nH]c3ccc(Cl)cc3c2o1 | 89 |
